procedureText: Pharmacokinetic test using chimeric mouse, 5 marker drugs simultaneously, oral or intravenous, donor IVT079
studyConditions: uPA(+/+)/SCID, mouse, in vivo, po, t 1/2 Elimination phase, oral administration; low-replacement chimeric mouse; donor IVT079; time window per footnote
Experimental: As for the chimeric mice, chimeric mice produced by Hiroshima Prefectural Institute of Industrial Science and Technology or PhoenixBio Co., Ltd. were used. […] To Eppendorf tubes in which 5 μl of samples to be measured (serum) were contained, 100 μl of methanol was added, and 10 μl of 1 μg/ml of I.S. standard solution was added thereto, and then, the mixtures were thoroughly mixed by an ultrasonic treatment and a vortex mixer. […]
quantityName: half-life (h)
Numeric answer only, unit h assumed.

In plain terms, COc1ccc2c(c1)[C@]13CCCC[C@@H]1[C@H](C2)N(C)CC3 has a documented half-life of 9.98

* * *

procedureText: Pharmacokinetic test using chimeric mouse, 5 marker drugs simultaneously, oral or intravenous, donor IVT079
studyConditions: uPA(+/+)/SCID, mouse, in vivo, po, t 1/2 Distribution phase, oral administration; high-replacement chimeric mouse; donor IVT079; time window per footnote
quantityName: half-life (h)
Numeric answer only, unit h assumed.

In plain terms, COc1ccc2c(c1)[C@]13CCCC[C@@H]1[C@H](C2)N(C)CC3 has a documented half-life of 1.15

* * *

System: CYP2D6
procedureText: Pharmacokinetic test of marker drugs in high-replacement chimeric mouse under inhibition of CYP2D6 by paroxetine, donor BD51
studyConditions: uPA(+/+)/SCID, in vivo, po, t 1/2 Distribution phase, high-replacement chimeric mouse, donor BD51, inhibitor paroxetine, time window per footnote
quantityName: half-life
Please don't drop the unit; write it after the number.

In plain terms, COc1ccc2c(c1)[C@]13CCCC[C@@H]1[C@H](C2)N(C)CC3 [Dextromethorphan, dextromethorphan] has a documented half-life of 1.44 h

* * *

procedureText: Pharmacokinetic test using chimeric mouse, 5 marker drugs simultaneously, oral or intravenous, donor IVT079
studyConditions: uPA(+/+)/SCID, mouse, in vivo, po, Cmax, oral administration; low-replacement chimeric mouse; donor IVT079; serum
quantityName: Cmax (ng/mL)
Numeric answer only, unit ng/mL assumed.

In plain terms, COc1ccc2c(c1)[C@]13CCCC[C@@H]1[C@H](C2)N(C)CC3 has a documented Cmax of 836

* * *

procedureText: in vivo
studyConditions: uPA(−/−)/SCID, mouse, in vivo, po, t 1/2 Elimination phase
quantityName: half-life (min)
Numeric answer only, unit min assumed.

In plain terms, Cn1c(=O)c2c(ncn2C)n(C)c1=O has a documented half-life of 49.2

* * *

procedureText: in vivo
studyConditions: uPA(+/+)/SCID, mouse, in vivo, po, t 1/2 Distribution phase
// half-life lookup, one value per entry
Numeric answer only, unit h assumed.

In plain terms, Cn1c(=O)c2c(ncn2C)n(C)c1=O has a documented half-life of 3.45

***
In plain terms, CC[C@H]1OC(=O)[C@H](C)[C@@H](O[C@H]2C[C@@](C)(OC)[C@@H](O)[C@H](C)O2)[C@H](C)[C@@H](O[C@@H]2O[C@H](C)C[C@H](N(C)C)[C@H]2O)[C@](C)(O)C[C@@H](C)C(=O)[C@H](C)[C@@H](O)[C@]1(C)O has a documented half-life of 4.38

* * *

procedureText: Pharmacokinetic test using chimeric mouse, 5 marker drugs simultaneously, oral or intravenous, donor IVT079
studyConditions: uPA(+/+)/SCID, mouse, in vivo, po, Bioavailability, high-replacement chimeric mouse; donor IVT079
quantityName: bioavailability (%)
Numeric answer only, unit % assumed.

In plain terms, COc1ccc2c(c1)[C@]13CCCC[C@@H]1[C@H](C2)N(C)CC3 has a documented bioavailability of 2.53

* * *

// AUC lookup, one value per entry
procedureText: in vivo
studyConditions: uPA(−/−)/SCID, mouse, in vivo, po, AUC
Numeric answer only, unit ng·h/mL assumed.

Consider the reported AUC for these molecules:
In plain terms, CC[C@H]1OC(=O)[C@H](C)[C@@H](O[C@H]2C[C@@](C)(OC)[C@@H](O)[C@H](C)O2)[C@H](C)[C@@H](O[C@@H]2O[C@H](C)C[C@H](N(C)C)[C@H]2O)[C@](C)(O)C[C@@H](C)C(=O)[C@H](C)[C@@H](O)[C@]1(C)O has a documented AUC of 4080

In plain terms, COc1ccc2[nH]c([S+]([O-])Cc3ncc(C)c(OC)c3C)nc2c1 (stereo not shown) has a documented AUC of 114

***
In plain terms, CCCCNC(=O)NS(=O)(=O)c1ccc(C)cc1 [Tolbutamide, tolbutamide] has a documented AUC of 95300

In plain terms, Cn1c(=O)c2c(ncn2C)n(C)c1=O has a documented AUC of 33200

* * *

procedureText: in vivo
studyConditions: uPA(+/+)/SCID, mouse, in vivo, iv, t 1/2 Distribution phase
// half-life lookup, one value per entry
Numeric answer only, unit min assumed.

In plain terms, CCCCNC(=O)NS(=O)(=O)c1ccc(C)cc1 [Tolbutamide, tolbutamide] has a documented half-life of 58.9

Next, consider the following compound.
In plain terms, Cn1c(=O)c2c(ncn2C)n(C)c1=O has a documented half-life of 48.5

* * *

procedureText: Pharmacokinetic test using chimeric mouse, 5 marker drugs simultaneously, oral or intravenous, donor IVT079
studyConditions: uPA(+/+)/SCID, mouse, in vivo, po, AUC, oral administration; high-replacement chimeric mouse; donor IVT079
quantityName: AUC (ng·h/mL)
Numeric answer only, unit ng·h/mL assumed.

In plain terms, COc1ccc2c(c1)[C@]13CCCC[C@@H]1[C@H](C2)N(C)CC3 [Dextromethorphan, dextromethorphan] has a documented AUC of 1020

* * *

// AUC lookup, one value per entry
procedureText: in vivo
studyConditions: uPA(−/−)/SCID, mouse, in vivo, iv, AUC
Numeric answer only, unit ng·h/mL assumed.

Consider the reported AUC for these compounds:
In plain terms, Cn1c(=O)c2c(ncn2C)n(C)c1=O has a documented AUC of 4070

In plain terms, COc1ccc2[nH]c([S+]([O-])Cc3ncc(C)c(OC)c3C)nc2c1 (stereo not shown) has a documented AUC of 840

In plain terms, CC[C@H]1OC(=O)[C@H](C)[C@@H](O[C@H]2C[C@@](C)(OC)[C@@H](O)[C@H](C)O2)[C@H](C)[C@@H](O[C@@H]2O[C@H](C)C[C@H](N(C)C)[C@H]2O)[C@](C)(O)C[C@@H](C)C(=O)[C@H](C)[C@@H](O)[C@]1(C)O has a documented AUC of 13800

Next, consider the following compound.
In plain terms, CCCCNC(=O)NS(=O)(=O)c1ccc(C)cc1 [Tolbutamide, tolbutamide] has a documented AUC of 11500

* * *

procedureText: Pharmacokinetic test using chimeric mouse, 5 marker drugs simultaneously, oral or intravenous, donor IVT079
studyConditions: uPA(−/−)/SCID, mouse, in vivo, po, Bioavailability, uPA(−/−)/SCID mouse
quantityName: bioavailability (%)
Numeric answer only, unit % assumed.

In plain terms, COc1ccc2c(c1)[C@]13CCCC[C@@H]1[C@H](C2)N(C)CC3 [Dextromethorphan, dextromethorphan] has a documented bioavailability of 2.22

* * *

procedureText: Pharmacokinetic test using chimeric mouse, 5 marker drugs simultaneously, oral or intravenous, donor IVT079
studyConditions: uPA(+/+)/SCID, mouse, in vivo, po, Bioavailability, low-replacement chimeric mouse; donor IVT079
quantityName: bioavailability

In plain terms, COc1ccc2c(c1)[C@]13CCCC[C@@H]1[C@H](C2)N(C)CC3 has a documented bioavailability of 7.93%

* * *

procedureText: Pharmacokinetic test using chimeric mouse, 5 marker drugs simultaneously, oral or intravenous, donor IVT079
studyConditions: uPA(+/+)/SCID, mouse, in vivo, po, Cmax, oral administration; high-replacement chimeric mouse; donor IVT079; serum
quantityName: Cmax (ng/mL)
Numeric answer only, unit ng/mL assumed.

In plain terms, COc1ccc2c(c1)[C@]13CCCC[C@@H]1[C@H](C2)N(C)CC3 has a documented Cmax of 276

* * *

procedureText: in vivo
studyConditions: uPA(−/−)/SCID, mouse, in vivo, po, Bioavailability
quantityName: bioavailability (%)
Numeric answer only, unit % assumed.

In plain terms, CCCCNC(=O)NS(=O)(=O)c1ccc(C)cc1 [Tolbutamide, tolbutamide] has a documented bioavailability of 82.9

In plain terms, Cn1c(=O)c2c(ncn2C)n(C)c1=O has a documented bioavailability of 81.6

In plain terms, CC[C@H]1OC(=O)[C@H](C)[C@@H](O[C@H]2C[C@@](C)(OC)[C@@H](O)[C@H](C)O2)[C@H](C)[C@@H](O[C@@H]2O[C@H](C)C[C@H](N(C)C)[C@H]2O)[C@](C)(O)C[C@@H](C)C(=O)[C@H](C)[C@@H](O)[C@]1(C)O has a documented bioavailability of 2.95

Next, consider the following compound.
In plain terms, COc1ccc2[nH]c([S+]([O-])Cc3ncc(C)c(OC)c3C)nc2c1 (stereo not shown) has a documented bioavailability of 1.36
